// values below are reported IC50
# SYSTEM_NAME: pre-formed polyQ46 or Exon1-polyQ46 aggregates (mHTT) (Homo sapiens, UniProt P42858, INS38QQQQQQQQQQQQQQQQQQQQQQQQQ)
# EXPERIMENT: Q46_RBA radioligand binding assay (displacement of [3H]-radioligand)

Observe how each entry below is paired with its result.
CNc1c(-c2cn3c(n2)sc2cc(OCCOCC(=O)N[C@@H](C(=O)N4C[C@@H](O)C[C@@H]4C(=O)NCc4ccc(-c5scnc5C)cc4)C(C)(C)C)ccc23)nc2cc(C#N)ccn12 ... < 100 nM
COc1ccc(COc2ccc3oc(N4CCN(CCOCCOCCOCC(=O)N[C@H](C(=O)N5C[C@H](O)C[C@H]5C(=O)NCc5ccc(-c6scnc6C)cc5)C(C)(C)C)CC4)nc3c2)nc1 ... 100 to 500 nM
Cc1ncsc1-c1ccc(CNC(=O)[C@@H]2C[C@@H](O)CN2C(=O)[C@@H](NC(=O)CCOCCOc2ccc(C(=O)Nc3ccc4oc(-c5ccc(=O)n(C)n5)nc4c3)nc2)C(C)(C)C)cc1 ... < 100 nM
CNc1c(-c2cn3c(n2)sc2cc(OCCOCCNc4cccc5c4C(=O)N(C4CCC(=O)NC4=O)C5=O)ccc23)nc2cc(C#N)ccn12 (centres unmarked) ... < 100 nM

Shifting focus to the compound that follows.
query: Provide measured IC50 value, entry: Cc1ccc2nc(-c3ccc(NCCOCCOCCOCCNc4cccc5c4C(=O)N(C4CCC(=O)NC4=O)C5=O)cc3)sc2c1 (centres unmarked)
result: 100 to 500 nM

###

# SYSTEM_NAME: pre-formed polyQ46 or Exon1-polyQ46 aggregates (mHTT) (Homo sapiens, UniProt P42858, INS38QQQQQQQQQQQQQQQQQQQQQQQQQ)
# EXPERIMENT: Q46_RBA radioligand binding assay (displacement of [3H]-radioligand)
// values below are reported IC50

Cn1nc(-c2nc3cc(NC(=O)c4ccc(OCCOCCOCCNc5cccc6c5C(=O)N(C5CCC(=O)NC5=O)C6=O)cn4)ccc3o2)ccc1=O (stereo not shown) ... < 100 nM
CC(C)C[C@H](NC(=O)[C@@H](O)[C@H](N)Cc1ccccc1)C(=O)NCCOCCOCCOc1ccc(C(=O)Nc2ccc3oc(-c4cccnc4)nc3c2)nc1 ... < 100 nM
COc1ccc(COc2ccc3oc(N4CCN(CCOCCOCCOCCOCC(=O)N[C@H](C(=O)N5C[C@H](O)C[C@H]5C(=O)NCc5ccc(-c6scnc6C)cc5)C(C)(C)C)CC4)nc3c2)nc1 ... > 500 nM
CC(C)C[C@H](NC(=O)[C@@H](O)[C@H](N)Cc1ccccc1)C(=O)NCCOCCOCCOCCOCCOCCOCCOCCOCCOc1ccc(C(=O)Nc2ccc3oc(-c4ccc(=O)n(C)n4)nc3c2)nc1 ... < 100 nM
Cc1ncsc1-c1ccc(CNC(=O)[C@@H]2C[C@@H](O)CN2C(=O)[C@H](C(C)C)N2Cc3ccccc3C2=O)c(OCCOCCOc2ccc(COc3ccc4oc(-c5ccc(=O)n(C)n5)nc4c3)nc2)c1 ... 100 to 500 nM
Cc1ccc2nc(-c3ccc(NCCOCCOCCOc4cccc5c4C(=O)N(C4CCC(=O)NC4=O)C5=O)cc3)sc2c1 (stereo not shown) ... < 100 nM
CC(C)C[C@H](NC(=O)[C@@H](O)[C@H](N)Cc1ccccc1)C(=O)NCCOCCOc1ccc(C(=O)Nc2ccc3oc(-c4ccc(=O)n(C)n4)nc3c2)nc1 ... < 100 nM
Cc1ccc2nc(-c3ccc(NC(=O)COCCOCCNC(=O)[C@H](CC(C)C)NC(=O)[C@@H](O)[C@H](N)Cc4ccccc4)cc3)sc2c1 ... 100 to 500 nM
CN1C(=O)CCC(N2C(=O)c3cccc(NCCOCCOCCOc4ccc(C(=O)Nc5ccc6oc(-c7ccc(=O)n(C)n7)nc6c5)nc4)c3C2=O)C1=O (stereo not shown) ... < 100 nM

Shifting focus to the compound that follows.
query: Provide measured IC50 value, entry: COc1ccc(NC(=O)c2ccnc(N(CCOCCOCCNC(=O)[C@H](CC(C)C)NC(=O)[C@@H](O)[C@H](N)Cc3ccccc3)c3ccccc3)n2)cn1
result: > 500 nM
